Test system: multi-drug-resistant NCl/ADR carcinoma cell line
Experiment: growth inhibition of multi-drug-resistant NCl/ADR cells, crystal-violet assay
Type: cell-based, human
Conditions: Table 2; 13,14-α-epoxides, crystal-violet assay, in comparison to epothilone B
Here the recorded IC50 is given for each entry.

Solved entries (count: 3):
Prompt: Consider the compound CC(=O)O[C@H]1C(=O)[C@@]2(C)[C@H]([C@H](OC(=O)c3ccccc3)[C@]3(O)C[C@H](OC(=O)[C@H](O)[C@@H](NC(=O)c4ccccc4)c4ccccc4)C(C)=C1C3(C)C)[C@]1(OC(C)=O)CO[C@@H]1C[C@@H]2O [Taxol, reference compound] and give its measured IC50.
Response: > 100 nM

Prompt: Quick one: IC50 of Cc1nc(C=C(F)C2CC3OC3(C)CCCC(C)C(O)C(C)C(=O)C3(CCC3)C(O)CC(=O)O2)cs1 (stereo not shown) [Example 10A] ?
Response: 3.9 nM

Prompt: Suppose we examine the compound CC[C@H]1C(=O)C2(CCC2)[C@@H](O)CC(=O)O[C@H](/C(F)=C/c2csc(C)n2)C[C@@H]2O[C@]2(C)CCC[C@H](C)[C@@H]1O [Example 14A] ; what IC50 value has been reported?
Response: 3.5 nM

The record that follows has no IC50 shown yet.
Prompt: Using the record for CC[C@H]1C(=O)C(C)(C)[C@@H](O)CC(=O)O[C@H](/C(F)=C/c2ccccn2)C[C@@H]2O[C@]2(C)CCC[C@H](C)[C@@H]1O [Example 20A] , report its IC50.
Response: 4.6 nM
